# Target or system: Sphingosine 1-phosphate receptor 1 (Homo sapiens, UniProt P21453)
# Sequence (P21453 whole entry): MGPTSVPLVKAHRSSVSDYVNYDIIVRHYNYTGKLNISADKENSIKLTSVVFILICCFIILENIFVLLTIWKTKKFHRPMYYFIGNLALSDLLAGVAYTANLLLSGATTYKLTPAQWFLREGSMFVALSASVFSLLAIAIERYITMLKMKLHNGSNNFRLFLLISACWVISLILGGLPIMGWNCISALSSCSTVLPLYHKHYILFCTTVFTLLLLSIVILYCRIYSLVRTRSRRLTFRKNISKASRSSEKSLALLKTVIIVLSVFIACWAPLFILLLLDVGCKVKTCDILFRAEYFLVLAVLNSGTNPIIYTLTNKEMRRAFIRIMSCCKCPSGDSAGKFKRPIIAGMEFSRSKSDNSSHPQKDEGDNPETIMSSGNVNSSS
# Method summary: Displacement of [33P]sphingosine 1 phosphate from human S1P1 receptor expressed in CHO cells
# Type: cell-based
Attribute measured: IC50

**Query** Query: IC50; subject: O=C(O)C1CN(Cc2ccc(OCc3cc(-c4ccccc4)c(C(F)(F)F)s3)c(Br)c2)C1
**Result** 13 nM (antagonist)

**Query** Record request: IC50 value, item CCCCCCCCCc1ccc(CN2CC(C(=O)O)C2)cc1
**Result** 18 nM (antagonist)

**Query** Recorded IC50 for O=C(O)C1CN(Cc2ccc(OCc3cc(-c4ccccc4)c(C(F)(F)F)s3)c(C(F)(F)F)c2)C1 , please?
**Result** 7.7 nM (antagonist)

**Query** What value of IC50 has been recorded for this entry: CCCCCCCCCCCCC/C=C/[C@@H](O)[C@@H](N)COP(=O)(O)O
**Result** 0.67 nM (antagonist)

**Query** Item FC(F)(F)c1sc(-c2nc(-c3ccccc3)no2)cc1-c1ccccc1 has what recorded IC50?
**Result** 25 nM (antagonist)

**Query** Field request: IC50 | item: Cc1cc(CN2CC(C(=O)O)C2)ccc1OCc1cc(-c2ccccc2)c(C(F)(F)F)s1
**Result** 1.8 nM (antagonist)
